Hey, just so you know, these numbers are from patent US20050266469A1.

SYSTEM: CHK1sv1 (Homo sapiens)
Construct: made in house; host or cells: SF9 insect cells (baculovirus, pVL1393 transfer vector)
Sequence (O14757 with tags, fused parts or gaps): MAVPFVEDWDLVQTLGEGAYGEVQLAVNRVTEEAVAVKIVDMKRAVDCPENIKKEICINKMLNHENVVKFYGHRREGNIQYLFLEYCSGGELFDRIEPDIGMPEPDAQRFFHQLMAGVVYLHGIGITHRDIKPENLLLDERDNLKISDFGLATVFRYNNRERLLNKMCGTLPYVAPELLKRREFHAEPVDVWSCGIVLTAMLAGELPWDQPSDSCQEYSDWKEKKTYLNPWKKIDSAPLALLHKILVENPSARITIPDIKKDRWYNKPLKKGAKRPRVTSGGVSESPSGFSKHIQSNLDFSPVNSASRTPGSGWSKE
ASSAY SUMMARY: CHK1sv1 kinase assay (Homogenous Time-Resolved Fluorescence, synthetic peptide substrate)
Type: biochemical
EXPERIMENTAL PARAMETERS: CHK1sv1 enzyme 0.1 nM; 0.1 mM ATP; 0.5 μM peptide substrate; 30 minutes at 22° C.
QUANTITY NAME: IC50
In your response, put the unit directly after the numeric value.

Query string: What IC50 value was documented for this compound, CN(C)C[C@H]1CCn2c(c(C3=C(c4cn(C)c5ccccc45)C(=O)NC3=O)c3ccccc32)C1 ?
Result string: 390 nM
